Hi! I'm sharing some MIC results obtained with Staphylococcus aureus ATCC 12600.
reported_property: MIC

compound: CCCCOc1cccc(C=C(C)C(=O)c2c(O)cc(C(C)CC/C=C/NC(=O)OC)oc2=O)c1 (mixture of isomers)
reported_property: MIC
recorded_value: > 40 mg/L

compound: COC(=O)N/C=C/CCC(C)c1cc(O)c(C(=O)C(C)=Cc2cc3ccc(CCC(F)(F)F)cc3o2)c(=O)o1 (mixture of isomers)
reported_property: MIC
recorded_value: > 40 mg/L

compound: CCCCc1ccc(C=CC(=O)c2c(O)cc(C(C)CC/C=C/NC(=O)OC)oc2=O)s1 (mixture of isomers)
reported_property: MIC
recorded_value: > 40 mg/L
